Taken from the supplement of paper PMC7877785.

- measurement-notes: self-splicing fitness, log relative to wild type (ln ratio); higher = more splicing; Tetrahymena group I intron in knt gene, E. coli kanamycin selection, DiMSum; sequences stand for … in CUCUCU…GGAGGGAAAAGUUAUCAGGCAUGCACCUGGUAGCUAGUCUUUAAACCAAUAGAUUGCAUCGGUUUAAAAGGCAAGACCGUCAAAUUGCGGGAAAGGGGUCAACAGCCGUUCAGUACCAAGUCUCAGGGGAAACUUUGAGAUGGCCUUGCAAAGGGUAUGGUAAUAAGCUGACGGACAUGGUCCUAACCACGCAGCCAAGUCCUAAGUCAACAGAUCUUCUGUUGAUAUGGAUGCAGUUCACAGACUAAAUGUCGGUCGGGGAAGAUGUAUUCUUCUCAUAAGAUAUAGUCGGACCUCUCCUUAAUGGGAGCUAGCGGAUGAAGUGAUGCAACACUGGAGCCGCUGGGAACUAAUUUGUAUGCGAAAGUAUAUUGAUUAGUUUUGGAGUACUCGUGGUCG;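 note: selection with 25 µg/mL kanamycin versus none on LB agar overnight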
- condition-label: 30 °C
measurement-kind: self-splicing fitness (ln)
Lab note: write the figure by itself, no unit.

Would you please look over these solved cases?
CAAGAGCAAUAUUACGGUCG : -0.431
CGUAAGCAAUAUUACGGACU : -0.0269
GCCAAGCAAUAUUACGAAGA : -2.96
AGAAAGCAAUAUUACGGGAA : -2.72
GAUGAGCAAUAUUACGCGCG : -1.68
CAAUAGCAAUAUUACGACAG : -0.279
GGGUAGCAAUAUUACGCAUU : -0.339
GAGAAGCAAUAUUACGCUCG : -1.07

Lookup: Name the reported self-splicing fitness (ln) value associated with the sequence UAUCAGCAAUAUUACGUAGU
Found: -1.87

Lookup: Input GGGUAGCAAUAUUACGAGCU
Found: -0.974

Lookup: # repeat for CUGGAGCAAUAUUACGCGGA
Found: -1.86

* * *

- measurement-notes: self-splicing fitness, log relative to wild type (ln ratio); higher = more splicing; Tetrahymena group I intron in knt gene, E. coli kanamycin selection, DiMSum; sequences stand for … in CUCUCU…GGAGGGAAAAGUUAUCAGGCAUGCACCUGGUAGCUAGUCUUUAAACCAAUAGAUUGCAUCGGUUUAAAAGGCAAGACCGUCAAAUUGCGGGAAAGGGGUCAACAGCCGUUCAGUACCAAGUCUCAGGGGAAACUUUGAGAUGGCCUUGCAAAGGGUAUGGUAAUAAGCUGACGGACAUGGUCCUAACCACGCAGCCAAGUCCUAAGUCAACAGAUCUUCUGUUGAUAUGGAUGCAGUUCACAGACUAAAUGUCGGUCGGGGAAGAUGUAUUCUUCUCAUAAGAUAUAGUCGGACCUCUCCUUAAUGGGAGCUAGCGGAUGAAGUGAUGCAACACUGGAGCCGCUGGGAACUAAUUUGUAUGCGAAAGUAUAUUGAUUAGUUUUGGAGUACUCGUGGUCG
- condition-label: 37 °C
measurement-kind: self-splicing fitness (ln)
Please reply with the number alone, leaving off any unit.

CGGAAGCAAUAUUACGAGGU : -2.42

Lookup: Look up self-splicing fitness (ln) for this sequence: AGGCAGCAAUAUUACGCCGG
Found: -1.66

Lookup: Entry UCAUAGCAAUAUUACGAGAA please
Found: -2.55

Lookup: Can you handle UGGUAGCAAUAUUACGGCUG next?
Found: -0.886

Lookup: Note, next up: AUGUAGCAAUAUUACGACCC
Found: -0.517

Lookup: Next: AGCUAGCAAUAUUACGAGUU
Found: -2.45

Lookup: Please do the same for AUCCAGCAAUAUUACGGACU as well.
Found: 0.126

Lookup: Please give the result for GAGGAGCAAUAUUACGUAUC too.
Found: -2.74

Lookup: And the next one, UGGCAGCAAUAUUACGGUAG ?
Found: -0.684

Lookup: Would you kindly repeat that for AGGUAGCAAUAUUACGGAGG ?
Found: -3.11

Lookup: Query UUCAAGCAAUAUUACGGAGG next
Found: -2.58
